assay-system: T1, human Claudin18.2 (CLDN18.2) (human, UniProt P56856 1-261)
T1 construct: the cell line is named under assay; also called human Claudine18.2; hClaudin18.2
assay-notes: FACS on CHOK1-18.2 cells;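 note: antibody binding to the cells detected with a fluorescently labelled secondary antibody and read out as median fluorescence intensity by flow cytometry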
Reported FACS MFI is given for each of the following binders.
reported-endpoint: FACS MFI

{"binder": "Ab05 (antibody, V domains shown, mouse monoclonal (hybridoma)) VH: DVKLVESGEDLVKPGGSLKLSCAASGFTFSNYAMSWVRQTPEKRLEWVAYVSSGGDYIYYADTVKGRFIISRDNARNTLYLQMNSLRSEDTAMYYCARVYFGNSLDYWGQGTTLTVSS VL: DIVMTQSPSSLTVTAGEKVTLSCKSSQSLLNGGNQKNYLTWYQQRPGQPPKLLIYWASTRESGVPDRFTGSGSGTDFTLIISSVQAEDLAVYYCQNDYYYPWTFGGGTKLEIK", "value-measured": 16000}
{"binder": "Ab08 (antibody, V domains shown, mouse monoclonal (hybridoma)) VH: QVQLQQPGAELVKPGASVKLSCKASGYTFTSYLLHWVKQRPGQGLEWIGMIHPNGGSTNYNEKFKTKATLTVDKSSSTAYMQLSSLTSEDSAVYYCAPVYFGNSFAYWGQGTLVTVSA VL: DIVMTQSPSSLTVTAGEKVTMSCKSSQSLLNSGNQKNYLTWYQQKPGQPPKLLIYWASTRESGVPDRFTGSGSGTDFTLTISSVQAEDLAVYYCQNDYYYPFTFGSGTKLEKK", "value-measured": 19400}
{"binder": "Ab26 (antibody, V domains shown, mouse monoclonal (hybridoma)) VH: EVMLVESGGGLVKPGGSLKLSCTASGFTFRSYTMSWVRQTPEKRLEWVATITGGGGNTYFLDSVKGRFTFSRDNAKNALYLQMNSLRSEDTALYYCARLGQTQRNAMDYWGQGTSVTVSS VL: DIVMTQSPSSLSVSAGEKVTMSCKSSQSLLNSGNQMNYLAWYQQKPGQPPKLLIYGASTRESGVPDRFTGSGSGTDFTLTISSVQAEDLAIYYCQNDHTYPLTFGAGTKLEL", "value-measured": 9730}
{"binder": "Ab04 (antibody, V domains shown, mouse monoclonal (hybridoma)) VH: EVQLQQSGPELVKPGASVKMSCMASGYTFTDYNIHWVKRSHGSRLEWIGYISPISGGAGYNQKFMDKATLTVDKSSNTAYMELRSLTSEDSAVYYCTRGDYWGQGTTLTVSS VL: DIVMTQSPSSLAVTVGEKVTMSCKSSQSLLNSGNQKNYLTWYQQKPGQPPKLLIYWASTRKSGVPDRFTGSGSGTDFTLTISSVQAEDLGIYYCLNDYGFPLTFGAGSKLELK", "value-measured": 17600}
{"binder": "Ab07 (antibody, V domains shown, mouse monoclonal (hybridoma)) VH: EVQLQQSGPELVKPGASVKISCKASGYSFTDYFMNWVKQSHGKGLEWIGRINPYNGDTFYNQKFKGKATLTVDKSSSTAHMELLSLTSEDFAVYYCALYDGYWGAFVYWGQGTLVTVSA VL: DIQMTQSPASLSVFVGETVTITCRASENIYSNLAWYQQKQGKSPQLLVYAATNLADGVPSRFSGSGSGTQYSLKINSLQSEDFGSYYCQHFWGTPLTFGAGTKLELK", "value-measured": 13700}
